Source: the NIST ThermoML archive (doi:10.1016/j.fluid.2005.02.015)

Answer each item with its documented mass density.
conditions: 298.15 K; 101.33 kPa; Liquid
A number alone suffices; assume kg/m3.

Ask: Would you mind telling me what mass density value was observed for CC(C)O [propan-2-ol] ?
Result: 785.428

Ask: Input CCO [ethanol]
Result: 789.261

Ask: Input CCCCO [butan-1-ol]
Result: 809.572

Ask: Input CCCCOC(=O)[C@H](C)O [butyl L-lactate]
Result: 982.178

Ask: Input CCOC(=O)[C@H](C)O [(S)-(-)-ethyl lactate]
Result: 1032.94

Ask: Input CC(C)OC(=O)[C@H](C)O [isopropyl (S)-2-hydroxypropionate]
Result: 986.942

----------
experiment: refractive index (Na D-line) (dimensionless); details: 293.15 K; 101.33 kPa; Liquid; Standard Abbe refractometry
experimentalReadout: refractive index
Keep it simple and answer with nothing but the number.

Ask: Would you mind telling me what refractive index value was observed for CCO ?
Result: 1.3614

Ask: Input CC(C)OC(=O)[C@H](C)O [isopropyl (S)-2-hydroxypropionate]
Result: 1.4105

Ask: Input CCCCOC(=O)[C@H](C)O [butyl L-lactate]
Result: 1.4218

Ask: Input CCOC(=O)[C@H](C)O [(S)-(-)-ethyl lactate]
Result: 1.4129

Ask: Input CCCCO
Result: 1.3993

Ask: Input CC(C)O
Result: 1.3774
